Target sequence: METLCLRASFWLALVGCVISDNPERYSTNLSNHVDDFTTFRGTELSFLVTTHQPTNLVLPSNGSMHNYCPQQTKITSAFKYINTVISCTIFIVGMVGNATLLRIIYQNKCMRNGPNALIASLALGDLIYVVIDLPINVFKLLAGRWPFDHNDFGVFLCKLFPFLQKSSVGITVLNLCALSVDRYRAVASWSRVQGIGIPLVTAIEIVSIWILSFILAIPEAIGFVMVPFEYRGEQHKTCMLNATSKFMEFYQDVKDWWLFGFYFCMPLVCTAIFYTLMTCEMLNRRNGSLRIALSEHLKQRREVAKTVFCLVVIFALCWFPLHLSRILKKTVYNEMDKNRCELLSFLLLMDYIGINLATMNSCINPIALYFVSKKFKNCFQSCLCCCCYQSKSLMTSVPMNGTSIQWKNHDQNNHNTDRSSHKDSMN
pIC50: −log10 of the molar value.
Each entry gets Criterion not met if its pIC50 stays under 7, and Criterion met if its pIC50 is 7 or above.

- compound: "CCCCC(NC(=O)CN1C[C@H](c2ccc3c(c2)OCO3)[C@@H](C(=O)O)[C@@H]1c1ccc(OC)cc1)c1ccccc1 (stereo not given in full)"
  assignedClass: "Criterion met"
- compound: "COCCOc1ccc([C@H]2[C@H](C(=O)O)[C@@H](c3ccc4c(c3)OCO4)CN2CC(=O)NC(c2ccccc2C)c2ccccc2C)cc1 (stereo in doubt; form 1)"
  assignedClass: "Criterion not met"
- compound: "CCc1ccccc1C(NC(=O)CN1C[C@H](c2ccc3c(c2)OCO3)[C@@H](C(=O)O)[C@@H]1c1ccc(OCCOC(C)C)cc1)c1ccccc1C (stereo not given in full)"
  assignedClass: "Criterion not met"

====

Below, each entry is listed with its recorded AUC.
assay: Total drug exposure (5 mg/kg) when administered intravenously
Assay type: ADME, organism-based
cond: in vivo, iv
experimentalReadout: AUC (ng·h/mL)

- compound: "COCCOc1ccc([C@H]2[C@H](C(=O)O)[C@@H](c3ccc4c(c3)OCO4)CN2CC(=O)NC(c2ccccc2C)c2ccccc2C)cc1.O=C(O)C(F)(F)F (stereo in doubt; form 2)"
  experimentalReadout: "AUC"
  valueUnits: "ng·h/mL"
  observedResult: 2500
- compound: "Cc1ccccc1C(NC(=O)CN1C[C@H](c2ccc3c(c2)OCO3)[C@@H](C(=O)O)[C@@H]1c1ccc(OCCOC(C)C)cc1)c1ccccc1C.O=C(O)C(F)(F)F (stereo in doubt; form 1)"
  experimentalReadout: "AUC"
  valueUnits: "ng·h/mL"
  observedResult: 3030

====

assay: Total drug exposure (5 mg/kg) when administered orally
Format: ADME, organism-based
cond: in vivo, po

- compound: "Cc1ccccc1C(NC(=O)CN1C[C@H](c2ccc3c(c2)OCO3)[C@@H](C(=O)O)[C@@H]1c1ccc(OCCOC(C)C)cc1)c1ccccc1C.O=C(O)C(F)(F)F (stereo in doubt; form 1)"
  valueUnits: "ng·h/mL"
  AUC: 730
- compound: "COCCOc1ccc([C@H]2[C@H](C(=O)O)[C@@H](c3ccc4c(c3)OCO4)CN2CC(=O)NC(c2ccccc2C)c2ccccc2C)cc1.O=C(O)C(F)(F)F (stereo in doubt; form 2)"
  valueUnits: "ng·h/mL"
  AUC: 200

====

targetSystem: Endothelin receptor, ET-A/ET-B (Homo sapiens) (UniProt P24530+P25101)
assay: Ratio of binding affinity towards human endothelin receptor type A to human endothelin receptor type B (hETA to hETB)
Format: protein assay
Binary classification by Ratio, with 0.5 as an inclusive lower bound for condition met; all other cases are condition not met.

- compound: "COc1ccc([C@H]2[C@H](C(=O)O)[C@@H](c3ccc4c(c3)OCO4)CN2CC(=O)NC(C)c2ccccc2)cc1 (some centres not stated)"
  assignedClass: "condition not met"
- compound: "CCc1ccccc1C(NC(=O)CN1C[C@H](c2ccc3c(c2)OCO3)[C@@H](C(=O)O)[C@@H]1c1ccc(OCCOC(C)C)cc1)c1ccccc1C (some centres not stated)"
  assignedClass: "condition met"
- compound: "COCCOc1ccc([C@H]2[C@H](C(=O)O)[C@@H](c3ccc4c(c3)OCO4)CN2CC(=O)NC(c2ccccc2C)c2ccccc2C)cc1 (stereo in doubt; form 2)"
  assignedClass: "condition met"
- compound: "CCC(NC(=O)CN1C[C@H](c2ccc3c(c2)OCO3)[C@@H](C(=O)O)[C@@H]1c1ccc(OC)cc1)c1ccccc1 (some centres not stated)"
  assignedClass: "condition not met"
- compound: "COc1ccc([C@H]2[C@H](C(=O)O)[C@@H](c3ccc4c(c3)OCO4)CN2CC(=O)NC(c2ccccc2C)c2ccccc2C)cc1"
  assignedClass: "condition met"
- compound: "COCCOc1ccc([C@H]2[C@H](C(=O)O)[C@@H](c3ccc4c(c3)OCO4)CN2CC(=O)NC(c2ccccc2C)c2ccccc2C)cc1 (stereo in doubt; form 1)"
  assignedClass: "condition met"

====

Attribute: half-life
assay: Half life (5 mg/kg) when administered orally
Type: ADME, organism-based
cond: in vivo, po
experimentalReadout: half-life (h)

- compound: "COCCOc1ccc([C@H]2[C@H](C(=O)O)[C@@H](c3ccc4c(c3)OCO4)CN2CC(=O)NC(c2ccccc2C)c2ccccc2C)cc1.O=C(O)C(F)(F)F (stereo in doubt; form 2)"
  valueUnits: "h"
  observedResult: 0.55
- compound: "Cc1ccccc1C(NC(=O)CN1C[C@H](c2ccc3c(c2)OCO3)[C@@H](C(=O)O)[C@@H]1c1ccc(OCCOC(C)C)cc1)c1ccccc1C.O=C(O)C(F)(F)F (stereo in doubt; form 1)"
  valueUnits: "h"
  observedResult: 4.8

====

Target chain: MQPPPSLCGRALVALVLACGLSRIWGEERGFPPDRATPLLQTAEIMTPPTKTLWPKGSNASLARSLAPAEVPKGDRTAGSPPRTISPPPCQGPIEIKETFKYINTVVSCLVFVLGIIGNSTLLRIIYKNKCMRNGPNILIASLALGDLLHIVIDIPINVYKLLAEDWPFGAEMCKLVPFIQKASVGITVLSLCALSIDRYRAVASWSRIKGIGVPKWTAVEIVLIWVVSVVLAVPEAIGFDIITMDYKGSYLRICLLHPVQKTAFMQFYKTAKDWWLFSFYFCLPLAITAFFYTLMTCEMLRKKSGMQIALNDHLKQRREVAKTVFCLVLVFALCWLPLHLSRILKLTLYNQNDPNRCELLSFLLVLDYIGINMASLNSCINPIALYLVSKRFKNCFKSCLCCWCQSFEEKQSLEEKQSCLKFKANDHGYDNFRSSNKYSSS
pIC50: −log10 of the molar value.

- compound: "COc1ccc([C@H]2[C@H](C(=O)O)[C@@H](c3ccc4c(c3)OCO4)CN2CC(=O)NC(c2ccccc2)(c2ccccc2)c2ccccc2)cc1"
  pIC50: 6.13
- compound: "Cc1ccccc1C(NC(=O)CN1C[C@H](c2ccc3c(c2)OCO3)[C@@H](C(=O)O)[C@@H]1c1ccc(OCCOC(C)C)cc1)c1ccccc1C (stereo in doubt; form 2)"
  pIC50: 8.48
- compound: "COc1ccc([C@H]2[C@H](C(=O)O)[C@@H](c3ccc4c(c3)OCO4)CN2CC(=O)NCC(c2ccccc2)c2ccccc2)cc1"
  pIC50: 6.97
- compound: "COc1ccc([C@H]2[C@H](C(=O)O)[C@@H](c3ccc4c(c3)OCO4)CN2CC(=O)NC(Cc2ccccc2)c2ccccc2)cc1 (stereo not given in full)"
  pIC50: 7.33
- compound: "COc1ccc([C@H]2[C@H](C(=O)O)[C@@H](c3ccc4c(c3)OCO4)CN2CC(=O)NC(C)c2ccccc2)cc1 (stereo not given in full)"
  pIC50: 7.70

Cited source: ChEMBL document CHEMBL1132108
